Below, each of the sequences is paired with its reported pre-steady-state target cleavage rate value.
system: MIWI (PIWIL1) piRISC loaded with L1MC piRNA (30 nt); assay: pre-steady-state target cleavage rate (min^-1); MIWI and MILI are mouse PIWI proteins and EfPiwi is from a freshwater sponge; tags in brackets are library labels; higher = faster piRNA-guided slicing of the target; conditions: guide: L1MC piRNA 5'p-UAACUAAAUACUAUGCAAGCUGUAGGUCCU; auxiliary factor: none (no GTSF1);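 further: 1 nM active piRISC with 0.1 nM target library at 33 °C single turnover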
The full ranking holds about 8,200 sequences; the median of “pre-steady-state target cleavage rate” is about 0.024, and the highest 2% start at about 1.3. What follows is part of a selection rich in the highest values, with near analogues and random picks from the rest.
# answer = number (no unit)

Below, 4 sequences whose answers are already recorded.
[
  {
    "Sequence Entry": "UCCUCCUACAGCUUGCAUUGAAUUUAGUUA",
    "Assay System": "MIWI (PIWIL1) piRISC loaded with L1MC piRNA (30 nt)",
    "pre-steady-state target cleavage rate": 0.00617
  },
  {
    "Sequence Entry": "UCCUGGAUGAGCUUGCUAUGUAUUUAGUUA",
    "Assay System": "MIWI (PIWIL1) piRISC loaded with L1MC piRNA (30 nt)",
    "pre-steady-state target cleavage rate": 0.00308
  },
  {
    "Sequence Entry": "UCCUGGAACAGCUUGCUUAGUAUUUAGUUA",
    "Assay System": "MIWI (PIWIL1) piRISC loaded with L1MC piRNA (30 nt)",
    "pre-steady-state target cleavage rate": 0.0404
  },
  {
    "Sequence Entry": "UCCUGCAACAGCUAGCAUAGUAUUUAGUUA",
    "Assay System": "MIWI (PIWIL1) piRISC loaded with L1MC piRNA (30 nt)",
    "pre-steady-state target cleavage rate": 0.0185
  }
]

**Query** Please give the measured pre-steady-state target cleavage rate for this sequence: UCCUGGUACUGCAUGCAUAGUAUUUAGUUA
**Result** 0.00786

**Query** Thanks! And UGGACCUACAGCUAUGCAUAGUAUUUAGUUA ?
**Result** 0.0371

**Query** Thanks! And UGGACCUCACAGCUUGCAUAGUAUUUAGUUA ?
**Result** 0.0711

**Query** Thanks! And UCCUCCAACAGCUUGCAAAGUAUUUAGUUA ?
**Result** 0.0397

**Query** Thanks! And UCGACCUCACAGCUUGCAUAGUAUUUAGUUA ?
**Result** 0.0855

**Query** Thanks! And UGGACCUACAGCUCUGCAUAGUAUUUAGUUA ?
**Result** 0.0566
